Listed here: items and their measured Activity.
- test.system: Mu-type opioid receptor (Cavia porcellus)
- test.summary: Displacement of [3H]-DAMGO from mu opioid receptor in guinea pig brain membrane assessed as residual binding at 1 uM after 150 mins by liquid scintillation counting
- Assay type: cell membranes

# compound, Activity [%]
records = [
    ("CC(CCN1CCCCC1)c1ccc(-c2ccccc2)cc1.Cl (racemic)", 0),
    ("COc1ccc(/C(C)=C/CN2CCOCC2)cc1", 0),
    ("C/C(=C\\CN1CCCCC1)c1ccc(-c2ccccc2)cc1", 0),
    ("COc1cccc(/C(C)=C/CN2CCOCC2)c1", 46),
    ("COc1ccc(/C(C)=C/CN2CCCCC2)cc1", 36),
]

----------
- Species on record: Cavia porcellus
- test.summary: Selectivity ratio of Ki for sigma2 receptor in guinea pig brain membrane to Ki for sigma1 receptor in guinea pig brain membrane
- Format: cell membranes
Listed here: items and their measured Ratio Ki.
readout: Ratio Ki

# compound, reported
rows = [
    ("C/C(=C\\CN1CCOCC1)c1ccc2ccccc2c1", 23.9),
    ("C/C(=C\\CN1CCC(Cc2ccccc2)CC1)c1ccccc1", 5.1),
    ("CC(CCN1CCCCC1)c1ccc(-c2ccccc2)cc1.Cl (racemic)", 147),
    ("C/C(=C\\CN1CCC(Cc2ccccc2)CC1)c1ccc(-c2ccccc2)cc1", 2.6),
    ("C/C(=C\\CN1CCC(Cc2ccccc2)CC1)c1ccc2ccccc2c1", 0.7),
    ("COc1cccc(/C(C)=C/CN2CCC(Cc3ccccc3)CC2)c1", 0.8),
    ("C/C(=C\\CN(C)Cc1ccccc1)c1ccccc1", 0.7),
    ("COc1ccc(/C(C)=C/CN(C)Cc2ccccc2)cc1", 29.5),
    ("C/C(=C\\CN(C)Cc1ccccc1)c1ccc2ccccc2c1", 111),
    ("C/C(=C\\CN(C)C)c1ccc(-c2ccccc2)cc1", 75.7),
    ("C/C(=C\\CN(C)C)c1ccc2ccccc2c1", 7.5),
    ("C/C(=C\\CN(C)Cc1ccccc1)c1ccc(-c2ccccc2)cc1", 12),
]

----------
- test.system: Kappa-type opioid receptor (Cavia porcellus) (UniProt P41144)
- Sequence (P41144 whole entry): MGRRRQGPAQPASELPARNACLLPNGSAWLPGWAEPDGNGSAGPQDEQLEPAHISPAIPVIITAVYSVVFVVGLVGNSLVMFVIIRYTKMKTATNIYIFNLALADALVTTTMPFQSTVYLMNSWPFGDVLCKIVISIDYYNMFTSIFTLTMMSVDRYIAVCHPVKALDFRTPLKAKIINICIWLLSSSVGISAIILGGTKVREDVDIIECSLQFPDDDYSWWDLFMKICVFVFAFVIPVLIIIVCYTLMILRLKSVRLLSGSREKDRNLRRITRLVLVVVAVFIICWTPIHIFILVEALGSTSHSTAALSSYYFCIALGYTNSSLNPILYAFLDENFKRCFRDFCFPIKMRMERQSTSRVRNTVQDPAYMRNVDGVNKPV
- test.summary: Displacement of [3H]-U69593 from kappa opioid receptor in guinea pig brain membrane assessed as residual binding at 1 uM after 150 mins by liquid scintillation counting
- Assay type: cell membranes

# compound, test.system, units.text, Activity
records = [
    ("C/C(=C\\CN1CCCCC1)c1ccc(-c2ccccc2)cc1", "Kappa-type opioid receptor (Cavia porcellus) (UniProt P41144)", "%", 6),
    ("C/C(=C\\CN1CCOCC1)c1ccc2ccccc2c1", "Kappa-type opioid receptor (Cavia porcellus) (UniProt P41144)", "%", 15),
    ("C/C(=C\\CN1CCOCC1)c1ccc(-c2ccccc2)cc1", "Kappa-type opioid receptor (Cavia porcellus) (UniProt P41144)", "%", 10),
    ("COc1ccc(/C(C)=C/CN2CCCCC2)cc1", "Kappa-type opioid receptor (Cavia porcellus) (UniProt P41144)", "%", 14),
    ("CC(CCN1CCCCC1)c1ccc(-c2ccccc2)cc1.Cl (racemic)", "Kappa-type opioid receptor (Cavia porcellus) (UniProt P41144)", "%", 36),
]

----------
Listed here: items and their measured Activity.
- test.system: Mu-type opioid receptor (Cavia porcellus) (UniProt P97266)
- Sequence (P97266 whole entry): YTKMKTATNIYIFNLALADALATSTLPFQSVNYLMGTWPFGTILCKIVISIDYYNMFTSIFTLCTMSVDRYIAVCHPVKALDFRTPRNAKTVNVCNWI
- test.summary: Displacement of [3H]-DAMGO from mu opioid receptor in guinea pig brain membrane assessed as residual binding at 1 uM after 150 mins by liquid scintillation counting
- Format: cell membranes
readout: Activity (%)

# compound, test.system, readout, reported
rows = [
    ("C/C(=C\\CN1CCCCC1)c1ccccc1", "Mu-type opioid receptor (Cavia porcellus) (UniProt P97266)", "Activity", 19),
    ("C/C(=C\\CN1CCOCC1)c1ccc(-c2ccccc2)cc1", "Mu-type opioid receptor (Cavia porcellus) (UniProt P97266)", "Activity", 52),
    ("COc1cccc(/C(C)=C/CN2CCC(Cc3ccccc3)CC2)c1", "Mu-type opioid receptor (Cavia porcellus) (UniProt P97266)", "Activity", 36),
]

----------
- test.summary: Displacement of [3H]-DTG from sigma2 receptor in guinea pig brain membrane after 120 mins by liquid scintillation counting
- Assay type: cell membranes, Cavia porcellus
pKi: −log10 of the molar value.
Listed here: items and their measured pKi.
readout: pKi

# compound, result.operator, reported
measured = [
    ("COc1cccc(/C(C)=C/CN2CCCCC2)c1", "=", 6.53),
    ("COc1ccc(/C(C)=C/CN(C)C)cc1", "<", 6.00),
    ("CC(CCN1CCCCC1)c1ccc(-c2ccccc2)cc1.Cl (racemic)", "=", 6.99),
    ("C/C(=C\\CN(C)Cc1ccccc1)c1ccc(-c2ccccc2)cc1", "=", 7.12),
    ("COc1cccc(/C(C)=C/CN2CCOCC2)c1", "<", 6.00),
    ("C/C(=C\\CN(C)C)c1ccc2ccccc2c1", "=", 6.83),
    ("COc1cccc(/C(C)=C/CN(C)C)c1", "<", 6.00),
    ("C/C(=C\\CN1CCCCC1)c1ccc(-c2ccccc2)cc1", "=", 6.95),
    ("COc1ccc(/C(C)=C/CN2CCCCC2)cc1", "=", 6.83),
    ("C/C(=C\\CN(C)C)c1ccccc1", "<", 6.00),
    ("C/C(=C\\CN1CCOCC1)c1ccccc1", "<", 6.00),
    ("COc1ccc(/C(C)=C/CN2CCOCC2)cc1", "<", 6.00),
]

----------
- Organism: Sus scrofa
- test.summary: Displacement of [3H]-(+)-MK-801 from NMDA receptor PCP binding site in pig brain cortex assessed as residual binding at 10 uM after 150 mins by scintillation counting

# compound, units.text, Activity
measured = [
    ("C/C(=C\\CN1CCC(Cc2ccccc2)CC1)c1ccc2ccccc2c1", "%", 17),
    ("COc1cccc(/C(C)=C/CN(C)Cc2ccccc2)c1", "%", 8),
    ("C/C(=C\\CN(C)C)c1ccccc1", "%", 0),
    ("C/C(=C\\CN(C)Cc1ccccc1)c1ccccc1", "%", 67),
    ("CC(CCN1CCCCC1)c1ccc(-c2ccccc2)cc1.Cl (racemic)", "%", 25),
    ("C/C(=C\\CN1CCC(Cc2ccccc2)CC1)c1ccccc1", "%", 0),
    ("C/C(=C\\CN1CCCCC1)c1ccc(-c2ccccc2)cc1", "%", 32),
    ("COc1ccc(/C(C)=C/CN(C)C)cc1", "%", 0),
    ("C/C(=C\\CN1CCCCC1)c1ccc2ccccc2c1", "%", 16),
    ("C/C(=C\\CN1CCC(Cc2ccccc2)CC1)c1ccc(-c2ccccc2)cc1", "%", 17),
    ("COc1cccc(/C(C)=C/CN2CCCCC2)c1", "%", 0),
    ("COc1cccc(/C(C)=C/CN2CCC(Cc3ccccc3)CC2)c1", "%", 36),
    ("COc1cccc(/C(C)=C/CN2CCOCC2)c1", "%", 20),
    ("C/C(=C\\CN1CCCCC1)c1ccccc1", "%", 0),
    ("COc1cccc(/C(C)=C/CN(C)C)c1", "%", 60),
]
